Reference source for all entries: patent US20240343803A1

test.target: T1, full-length cynomolgus monkey TIGIT on CHO-K1 cells (CHO-K1 cynomolgus monkey TIGIT) (cynomolgus monkey)
T1 construct: NCBI XP_015300911.1; also called cynomolgus monkey TIGIT cells
T1 sequence (chain, as listed by the source limits assumed): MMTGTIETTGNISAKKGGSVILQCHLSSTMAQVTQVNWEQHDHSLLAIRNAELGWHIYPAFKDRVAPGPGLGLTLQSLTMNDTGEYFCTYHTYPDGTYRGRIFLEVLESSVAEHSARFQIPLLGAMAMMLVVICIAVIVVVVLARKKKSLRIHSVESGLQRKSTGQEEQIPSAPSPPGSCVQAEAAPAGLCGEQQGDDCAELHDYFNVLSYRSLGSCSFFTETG
assay.overview: FACS
Listed next: entries and their corresponding pEC50.
The meaning of pEC50 here: minus log10 of the concentration in molar units.

Please review the entries below; each comes with its answer.
binder	pEC50
TIGIT-CHI-005 (antibody, V domains shown, human-mouse chimeric antibody) VH: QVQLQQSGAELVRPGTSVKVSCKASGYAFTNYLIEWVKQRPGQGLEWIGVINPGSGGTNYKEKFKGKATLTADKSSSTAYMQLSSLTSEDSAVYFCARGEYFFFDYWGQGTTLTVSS VL: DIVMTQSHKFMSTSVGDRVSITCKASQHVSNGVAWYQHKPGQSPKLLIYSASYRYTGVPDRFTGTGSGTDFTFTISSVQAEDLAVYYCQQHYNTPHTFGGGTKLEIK	10.58
TIGIT-CHI-006 (antibody, V domains shown, human-mouse chimeric antibody) VH: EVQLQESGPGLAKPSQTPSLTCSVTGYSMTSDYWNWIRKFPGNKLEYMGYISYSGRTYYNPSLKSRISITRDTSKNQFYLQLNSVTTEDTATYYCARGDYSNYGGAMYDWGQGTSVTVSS VL: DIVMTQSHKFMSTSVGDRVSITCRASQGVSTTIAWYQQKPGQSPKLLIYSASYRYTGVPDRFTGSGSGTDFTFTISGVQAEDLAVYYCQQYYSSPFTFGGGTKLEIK	10.14

Asked: Please report the recorded pEC50 for TIGIT-CHI-002 (antibody, V domains shown, human-mouse chimeric antibody) VH: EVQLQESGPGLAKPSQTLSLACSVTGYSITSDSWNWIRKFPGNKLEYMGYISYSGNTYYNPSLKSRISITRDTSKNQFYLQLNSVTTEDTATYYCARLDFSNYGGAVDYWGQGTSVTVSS VL: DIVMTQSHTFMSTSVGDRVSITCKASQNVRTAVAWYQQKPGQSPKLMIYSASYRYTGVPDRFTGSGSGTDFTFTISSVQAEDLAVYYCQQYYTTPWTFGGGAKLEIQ .
Given back: 10.54

Asked: One more binder: TIGIT-CHI-070 (antibody, V domains shown, human-mouse chimeric antibody) VH: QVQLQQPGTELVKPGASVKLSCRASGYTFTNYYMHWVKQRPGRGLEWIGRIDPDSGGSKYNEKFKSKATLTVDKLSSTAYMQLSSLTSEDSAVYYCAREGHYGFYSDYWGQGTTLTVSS VL: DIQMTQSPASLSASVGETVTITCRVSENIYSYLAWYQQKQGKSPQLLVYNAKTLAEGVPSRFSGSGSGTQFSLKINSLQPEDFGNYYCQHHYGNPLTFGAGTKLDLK
Given back: 10.44
